Record type: GI50 measurement. Applies to: HS 578T
Answers are plain numbers, in nM.

Answered cases to consult:
INSERT INTO assay_data (smilesrecord, assayvalue) VALUES
  ('CC1=C2[C@@H](CC1)[C@]1(C)O[C@@](C3CCCCC3)(C[C@H]1OC(=O)CO)[C@H]2OC(=O)C=Cc1ccccc1', 30),
  ('CC(=O)O[C@@H]1C[C@]2(C(C)C)O[C@@]1(C)[C@@H]1CCC(C)=C1[C@@H]2OC(=O)C=Cc1ccccc1', 4800),
  ('CC1=C2[C@@H](CC1)[C@]1(C)O[C@@](C(C)C)(C[C@H]1OC(=O)[C@H](C)O)[C@H]2OC(=O)C=Cc1ccccc1', 98);

Below: the item to evaluate.
Query string: Report measured GI50; entry is CC1=C2[C@@H](CC1)[C@]1(C)O[C@@](c3ccccc3)(C[C@H]1OC(=O)CO)[C@H]2OC(=O)C=Cc1ccccc1
Result string: 33

* * *

Tested on: NCI-H322M
assayComment: NCI 60 cell assay, NSCLC NCI-H322M
Format: cell-based
conditionContext: Homo sapiens, 48 h, drug exposure two days, SRB endpoint, read-out: GI-50 value
observable: GI50 (µM)
Answers are plain numbers, in µM.

INSERT INTO measurements (smilesrecord, assayvalue) VALUES
  ('CC1=C2[C@@H](CC1)[C@]1(C)O[C@@](C(C)C)(C[C@H]1OC(=O)CO)[C@H]2OC(=O)/C=C/c1ccccc1', 43),
  ('CC1=C2[C@@H](CC1)[C@]1(C)O[C@@](C3CC3)(C[C@H]1OC(=O)CO)[C@H]2OC(=O)C=Cc1ccccc1', 17);

Let us examine a further case.
Query string: State, in one line, measured GI50 of CC1=C2[C@@H](CC1)[C@]1(C)O[C@@](c3ccccc3)(C[C@H]1OC(=O)CO)[C@H]2OC(=O)C=Cc1ccccc1
Result string: 22

* * *

Task for the reader: assign each of the following molecules its reported GI50.
Tested on: T-47D
assayComment: NCI 60 cell assay, breast T-47D
Assay type: cell-based
conditionContext: Homo sapiens, T47D, 48 h; T-47D (breast); drug exposure two days, SRB endpoint; read-out: GI-50 value
Give bare numbers, in µM.

INSERT INTO results (molecule, assayvalue) VALUES
  ('CC1=C2[C@@H](CC1)[C@]1(C)O[C@@](C3CCCCC3)(C[C@H]1OC(=O)CO)[C@H]2OC(=O)C=Cc1ccccc1', 9.1),
  ('CC1=C2[C@@H](CC1)[C@]1(C)O[C@@](C(C)C)(C[C@H]1OC(=O)CO)[C@H]2OC(=O)C1CC1c1ccccc1 (stereo partly shown)', 4.6),
  ('CC1=C2[C@@H](CC1)[C@]1(C)O[C@@](c3ccccc3)(C[C@H]1OC(=O)CO)[C@H]2OC(=O)C=Cc1ccccc1', 11);

Let us move to another entry and its GI50.
Query string: Write down measured GI50 (T-47D) for this molecule. CC1=C2[C@@H](CC1)[C@]1(C)O[C@@](C(C)C)(C[C@H]1OC(=O)[C@H](C)O)[C@H]2OC(=O)C=Cc1ccccc1
Result string: 7.2

* * *

System: SK-MEL-5
Please assign rule not met whenever GI50 is at or above 20 µM, and rule met whenever it is below.

Reference set (4 entries):
INSERT INTO measurements (molecule, qualitativelabel) VALUES
  ('CC1=C2[C@@H](CC1)[C@]1(C)O[C@@](c3ccccc3)(C[C@H]1OC(=O)CO)[C@H]2OC(=O)C=Cc1ccccc1', 'rule met'),
  ('CC1=C2[C@@H](CC1)[C@]1(C)O[C@@](C3CC3)(C[C@H]1OC(=O)CO)[C@H]2OC(=O)C=Cc1ccccc1', 'rule met'),
  ('CC1=C2[C@@H](CC1)[C@]1(C)O[C@@](C(C)C)(C[C@H]1OC(=O)CO)[C@H]2OC(=O)/C=C/c1ccccc1', 'rule not met'),
  ('CC1=C2[C@@H](CC1)[C@]1(C)O[C@@](C3CCCCC3)(C[C@H]1OC(=O)CO)[C@H]2OC(=O)C=Cc1ccccc1', 'rule met');

Query string: Strictly below 20 µM: is that where GI50 of CC1=C2[C@@H](CC1)[C@]1(C)O[C@@](C(C)C)(C[C@H]1OC(=O)CO)[C@H]2OC(=O)C1CC1c1ccccc1 (stereo partly shown) sits?
Result string: rule met

Query string: Take the molecule CC(=O)O[C@@H]1C[C@]2(C(C)C)O[C@@]1(C)[C@@H]1CCC(C)=C1[C@@H]2OC(=O)C=Cc1ccccc1 and say whether its GI50 is less than 20 µM.
Result string: rule not met

Query string: Does this molecule meet the criterion GI50 < 20 µM? CC1=C2[C@@H](CC1)[C@]1(C)O[C@@](C(C)C)(C[C@H]1OC(=O)[C@H](C)O)[C@H]2OC(=O)C=Cc1ccccc1
Result string: rule met

* * *

Test system: KM12
Hi there, I'd appreciate the recorded GI50 for every entry that follows.
Answers are plain numbers, in µM.

These solved cases illustrate the format of a correct answer.
INSERT INTO measurements (compound, observable, unit, assayvalue) VALUES
  ('CC1=C2[C@@H](CC1)[C@]1(C)O[C@@](C(C)C)(C[C@H]1OC(=O)CO)[C@H]2OC(=O)/C=C/c1ccccc1 [Compound (Ih)]', 'GI50', 'µM', 40),
  ('CC1=C2[C@@H](CC1)[C@]1(C)O[C@@](c3ccccc3)(C[C@H]1OC(=O)CO)[C@H]2OC(=O)C=Cc1ccccc1 [(Ir)]', 'GI50', 'µM', 16),
  ('CC(=O)O[C@@H]1C[C@]2(C(C)C)O[C@@]1(C)[C@@H]1CCC(C)=C1[C@@H]2OC(=O)C=Cc1ccccc1 [(Im)]', 'GI50', 'µM', 40),
  ('CC1=C2[C@@H](CC1)[C@]1(C)O[C@@](C3CCCCC3)(C[C@H]1OC(=O)CO)[C@H]2OC(=O)C=Cc1ccccc1 [(Iq)]', 'GI50', 'µM', 14),
  ('CC1=C2[C@@H](CC1)[C@]1(C)O[C@@](C3CC3)(C[C@H]1OC(=O)CO)[C@H]2OC(=O)C=Cc1ccccc1 [Compound (Is)]', 'GI50', 'µM', 17);

Each compound below has a reported value. Please supply its GI50.
1. CC1=C2[C@@H](CC1)[C@]1(C)O[C@@](C(C)C)(C[C@H]1OC(=O)CO)[C@H]2OC(=O)C1CC1c1ccccc1 (stereo partly shown) [Compound (Ij)]
2. CC1=C2[C@@H](CC1)[C@]1(C)O[C@@](C(C)C)(C[C@H]1OC(=O)[C@H](C)O)[C@H]2OC(=O)C=Cc1ccccc1 [(Il)]

Result string:
13
16

* * *

Below are GI50 values measured for RPMI-8226.
Answers are plain numbers, in µM.

For orientation, consider the following solved cases.
INSERT INTO results (molecule, observable, assayvalue) VALUES
  ('CC1=C2[C@@H](CC1)[C@]1(C)O[C@@](C3CCCCC3)(C[C@H]1OC(=O)CO)[C@H]2OC(=O)C=Cc1ccccc1 [(Iq)]', 'GI50', 10),
  ('CC1=C2[C@@H](CC1)[C@]1(C)O[C@@](c3ccccc3)(C[C@H]1OC(=O)CO)[C@H]2OC(=O)C=Cc1ccccc1 [(Ir)]', 'GI50', 13),
  ('CC1=C2[C@@H](CC1)[C@]1(C)O[C@@](C3CC3)(C[C@H]1OC(=O)CO)[C@H]2OC(=O)C=Cc1ccccc1 [Compound (Is)]', 'GI50', 20),
  ('CC1=C2[C@@H](CC1)[C@]1(C)O[C@@](C(C)C)(C[C@H]1OC(=O)CO)[C@H]2OC(=O)C1CC1c1ccccc1 (stereo partly shown) [Compound (Ij)]', 'GI50', 13),
  ('CC1=C2[C@@H](CC1)[C@]1(C)O[C@@](C(C)C)(C[C@H]1OC(=O)CO)[C@H]2OC(=O)/C=C/c1ccccc1 [Compound (Ih)]', 'GI50', 27);

Record GI50 per entry; entries follow.
1. CC1=C2[C@@H](CC1)[C@]1(C)O[C@@](C(C)C)(C[C@H]1OC(=O)[C@H](C)O)[C@H]2OC(=O)C=Cc1ccccc1 [(Il)]
2. CC(=O)O[C@@H]1C[C@]2(C(C)C)O[C@@]1(C)[C@@H]1CCC(C)=C1[C@@H]2OC(=O)C=Cc1ccccc1 [(Im)]

Result string:
8
10

* * *

Could you please report measured GI50 for the items listed next?
System: SK-MEL-28
Give bare numbers, in µM.

INSERT INTO assay_data (molecule, assayvalue) VALUES
  ('CC1=C2[C@@H](CC1)[C@]1(C)O[C@@](C3CC3)(C[C@H]1OC(=O)CO)[C@H]2OC(=O)C=Cc1ccccc1', 18),
  ('CC(=O)O[C@@H]1C[C@]2(C(C)C)O[C@@]1(C)[C@@H]1CCC(C)=C1[C@@H]2OC(=O)C=Cc1ccccc1', 69),
  ('CC1=C2[C@@H](CC1)[C@]1(C)O[C@@](C3CCCCC3)(C[C@H]1OC(=O)CO)[C@H]2OC(=O)C=Cc1ccccc1', 17),
  ('CC1=C2[C@@H](CC1)[C@]1(C)O[C@@](C(C)C)(C[C@H]1OC(=O)[C@H](C)O)[C@H]2OC(=O)C=Cc1ccccc1', 16);

For every item in the list below, what is its measured GI50?
1. CC1=C2[C@@H](CC1)[C@]1(C)O[C@@](c3ccccc3)(C[C@H]1OC(=O)CO)[C@H]2OC(=O)C=Cc1ccccc1
2. CC1=C2[C@@H](CC1)[C@]1(C)O[C@@](C(C)C)(C[C@H]1OC(=O)CO)[C@H]2OC(=O)C1CC1c1ccccc1 (stereo partly shown)
3. CC1=C2[C@@H](CC1)[C@]1(C)O[C@@](C(C)C)(C[C@H]1OC(=O)CO)[C@H]2OC(=O)/C=C/c1ccccc1

Result string:
1: 18; 2: 17; 3: 42

Where these numbers come from: patent US10287297B2
